target.system: UniProtKB O15111
Sequence (O15111 whole entry): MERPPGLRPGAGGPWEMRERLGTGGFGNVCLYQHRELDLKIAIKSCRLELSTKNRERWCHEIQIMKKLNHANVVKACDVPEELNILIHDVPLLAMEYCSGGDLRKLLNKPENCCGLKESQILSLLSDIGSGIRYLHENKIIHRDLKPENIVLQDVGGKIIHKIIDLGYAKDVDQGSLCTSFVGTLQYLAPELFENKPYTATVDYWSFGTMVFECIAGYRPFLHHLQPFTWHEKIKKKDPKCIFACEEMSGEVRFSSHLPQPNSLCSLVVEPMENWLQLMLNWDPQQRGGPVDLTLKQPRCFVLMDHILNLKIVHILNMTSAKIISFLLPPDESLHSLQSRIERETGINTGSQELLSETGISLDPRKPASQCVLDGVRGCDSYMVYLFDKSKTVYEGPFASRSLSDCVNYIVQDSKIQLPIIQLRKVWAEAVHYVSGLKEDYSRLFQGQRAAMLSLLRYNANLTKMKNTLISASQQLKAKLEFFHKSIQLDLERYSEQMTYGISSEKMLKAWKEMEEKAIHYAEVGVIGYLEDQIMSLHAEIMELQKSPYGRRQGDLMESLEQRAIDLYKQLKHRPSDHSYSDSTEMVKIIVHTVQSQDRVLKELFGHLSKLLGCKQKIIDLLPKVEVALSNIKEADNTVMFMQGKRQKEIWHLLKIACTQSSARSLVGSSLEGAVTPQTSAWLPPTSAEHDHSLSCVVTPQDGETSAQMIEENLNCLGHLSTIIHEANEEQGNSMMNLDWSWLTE
recorded.endpoint: pIC50
The meaning of pIC50 here: minus log10 of the concentration in molar units.

Write down the reported pIC50 of CCn1nc(C#Cc2cc(C(=O)Nc3ccc(CN4CCN(C)CC4)c(C(F)(F)F)c3)ccc2C)c2c(N)ncnc21 [Compound 3] , test system: UniProtKB O15111.
6.45

* * *

target.system: EphB4 (Homo sapiens (Human), UniProt P54760)
Sequence (P54760 16-987): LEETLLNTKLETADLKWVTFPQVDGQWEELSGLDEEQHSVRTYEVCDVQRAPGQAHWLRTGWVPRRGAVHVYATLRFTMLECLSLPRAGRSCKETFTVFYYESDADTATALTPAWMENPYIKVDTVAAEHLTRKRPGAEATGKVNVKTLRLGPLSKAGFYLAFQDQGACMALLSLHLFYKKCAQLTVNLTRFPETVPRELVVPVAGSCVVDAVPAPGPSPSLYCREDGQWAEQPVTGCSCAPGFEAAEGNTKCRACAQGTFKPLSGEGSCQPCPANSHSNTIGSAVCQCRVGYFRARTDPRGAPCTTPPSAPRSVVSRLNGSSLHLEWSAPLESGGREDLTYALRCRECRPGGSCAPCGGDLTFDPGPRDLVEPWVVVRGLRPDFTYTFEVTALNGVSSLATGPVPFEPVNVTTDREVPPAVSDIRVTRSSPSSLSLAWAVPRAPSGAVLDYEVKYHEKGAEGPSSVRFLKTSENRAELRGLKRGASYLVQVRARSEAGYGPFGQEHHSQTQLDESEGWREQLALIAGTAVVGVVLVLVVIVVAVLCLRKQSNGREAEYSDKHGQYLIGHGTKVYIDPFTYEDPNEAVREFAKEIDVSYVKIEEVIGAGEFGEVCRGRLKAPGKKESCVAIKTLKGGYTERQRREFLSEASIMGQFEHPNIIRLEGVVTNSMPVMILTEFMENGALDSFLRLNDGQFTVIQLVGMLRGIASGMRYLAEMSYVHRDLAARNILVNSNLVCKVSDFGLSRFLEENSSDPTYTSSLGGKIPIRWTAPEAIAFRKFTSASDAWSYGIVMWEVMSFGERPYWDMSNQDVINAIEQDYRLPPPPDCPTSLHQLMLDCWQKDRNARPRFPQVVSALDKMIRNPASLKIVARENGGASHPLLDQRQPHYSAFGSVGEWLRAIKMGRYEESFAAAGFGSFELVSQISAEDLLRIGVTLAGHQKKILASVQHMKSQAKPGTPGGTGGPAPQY
method.description: Kinase inhibition assay (KinaseProfiler, 33P-ATP)
Type: biochemical
run.parameters: EphB4; ATP at Km
Reported pIC50 values for a set of compounds
# log scale: pIC50 equals minus log10 of the concentration in mol/L

CCn1nc(C#Cc2cc(C(=O)Nc3ccc(CN4CCN(C)CC4)c(C(F)(F)F)c3)ccc2C)c2c(N)ncnc21 [Compound 3] | 7.64
Cc1ccc(C(=O)Nc2ccc(CN3CCN(C)CC3)c(C(F)(F)F)c2)cc1C#Cc1nn(C2CCNCC2)c2ncnc(N)c12 [Compound 120] | 7.55

Next item in the queue.
Reported pIC50 for Cc1ccc(NC(=O)c2cccc(C(F)(F)F)c2)cc1C#Cc1nn(C2CCN(C)CC2)c2ncnc(N)c12 [Compound 31] : what is it?
7.96

All values here come from patent US10266537B2.
